# experimental target: Peptide 5: Biotin-…-[Tyr(PC)]-acid
# Sequence (peptide, as listed by the source): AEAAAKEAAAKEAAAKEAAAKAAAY
# experiment notes: scFv ELISA
What OD450 was measured for each of the following?
Numbers only, in OD450.

Solved cases below.
PcOxP_DB01_F04 (scFv, V domains shown, scFv in periplasmic extract) VH: EVQLLESGGGLVQPGGSLRLSCAASGFTFSSYYMEWVRQAPGKGLEWVAASRNKYNDYTTEYADSVKGRFTISRDNSKNTLYLQMNSLRAEDTAVYYCARDYYGSSYWYFDVWGQGTLVTVSS VL: DIQMTQSPSSLSASVGDRVTITCTASESLYSSKHKVHYLAWYQQKPGKAPKLLIYGAVNRYIGVPSRFSGSGSGTDFTLTISSLQPEDFATYYCAQFYRYPLTFGGGTKVEIK    0.57
PcOxP_DB03_B10 (scFv, V domains shown, scFv in periplasmic extract) VH: EVQLLESGGGLVQPGGSLRLSCAASGFTFSDYYMEWVRQAPGKGLEWVAASRNKANDYNTEYADSVKGRFTISRDNSKNTLYLQMNSLRAEDTAVYYCARDYYGSSYWYFDVWGQGTLVTVSS VL: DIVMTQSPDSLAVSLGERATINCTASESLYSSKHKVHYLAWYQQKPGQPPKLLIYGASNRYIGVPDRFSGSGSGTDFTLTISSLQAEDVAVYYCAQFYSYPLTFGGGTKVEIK    0.71

Can you give me OD450 for all of these, one by one?
1. PcOxP_DB04_F11 (scFv, V domains shown, scFv in periplasmic extract) VH: EVQLLESGGGLVQPGGSLRLSCAASGFTGSDFYMEWVRQAPGKGLEWVAASRGKGNSYTTEYADSVKGRFTISRDNSKNTLYLQMNSLRAEDTAVYYCARDYYGSSTWYFDVWGQGTLVTVSS VL: DIQMTQSPSSLSASVGDRVTITCTASESLYSSKHKVHYLAWYQQKPGKAPKLLIYGASNRYAGVPSRFSGSGSGTDFTLTISSLQPEDFATYYCGQFYSYPLTFGGGTKVEIK
2. PcOxP_DB01_H02 (scFv, V domains shown, scFv in periplasmic extract) VH: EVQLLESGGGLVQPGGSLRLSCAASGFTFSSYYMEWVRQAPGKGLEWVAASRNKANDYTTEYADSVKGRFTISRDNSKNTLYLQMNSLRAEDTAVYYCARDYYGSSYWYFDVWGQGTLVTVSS VL: DIVMTQSPDSLAVSLGERATINCTASSSLYSSKHKVHYLAWYQQKPGQPPKLLIYGASNRYIGVPDRFSGSGSGTDFTLTISSLQAEDVAVYYCAQFYSYPLTFGGGTKVEIK
3. PcOxP_DB01_B11 (scFv, V domains shown, scFv in periplasmic extract) VH: EVQLLESGGGLVQPGGSLRLSCAASGFTFEDFYMEWVRQAPGKGLEWVAASRNKANDYTTEYADSVKGRFTISRDNSKNTLYLQMNSLRAEDTAVYYCARDYFGSSYWYFDVWGQGTLVTVSS VL: DIQMTQSPSSLSASVGDRVTITCTASESLYSSKHKVHYLAWYQQKPGKAPKLLIYGASNRYHGVPSRFSGSGSGTDFTLTISSLQPEDFATYYCAQFYSYPLTFGGGTKVEIK

[1.27, 1.1, 1.32]
